Reported soluble fraction (log2) values for a set of sequences
assay: soluble fraction after stress (log2 fold change); higher = more stays soluble; pooled small domains, quantitative proteomics; details: stress: pH 4
endpoint label: soluble fraction (log2)

>>> endpoint_value("HMSVPSVAAVREQTGLSQVKFASLLGVSVRTLQEWEQGRRAPSGAARTLLMVAAKNPQALLEV")
-0.0956
>>> endpoint_value("HMIKSEERIQNIKEYILEFQFTYHRTPTMAQIAEAVGTVKSNVYKYLSEMEERGILTRNKREIEINDTIQ")
-0.588
>>> endpoint_value("HMPRYSGMFAAWLHKALARMGKSMSDSARSAFTERVELDYSSANNELQKLSLLVGDRKVITEADVMRAIG")
-0.0455
>>> endpoint_value("HMIPDMSLELAMSEQTSKGDLYGDLPNDKLALMFNAISKKVPHTDDHKRKMVAIQTILESRAS")
0.0127

* * *

assay: soluble fraction after stress (log2 fold change); higher = more stays soluble; pooled small domains, quantitative proteomics; details: stress: pH 4
Given measured soluble fraction (log2), output y if it is greater than or equal to -0.04 and n if not.

>>> answer_label("HMSGKMTVPNVVGKTETEAKSALSAKGFTNVRTETVDSTEAAGTVVKQSLDADSVQDPKTEIVLSVSNG")
"y"
>>> answer_label("HMKNNYQYIVDQIKQLILDGELIVGDRLPSERDLSEMYQVSRASVREALKALETIGLLESRHGGGNYIVNH")
"n"
>>> answer_label("HMSVLDEVRKLSFHQRNAVFLFYFEGYSMKEIAQIFHVKEGTVSSWLTRARKQLRKQMEEEVLYDESLP")
"n"
>>> answer_label("HMLQGKVSFFNDEKGYGFIKDNNSKDSYFVHINKVEGEIAEGDKVTFELEKGPKGLVAANVKR")
"n"
>>> answer_label("HMSWNIHEAVEYYKGQDAPQNQFALVELLKEVQEHNGGVLTDIAVEEIAALLNTKVTFLNAVIKRYPSLK")
"n"
>>> answer_label("HMESTLNYSQFLSLVNEDRVAEVVIQGKELYVTDVNRSRFKVYAPPDPELIGLLRQKRVIISAKP")
"y"
>>> answer_label("HMKISQSRKAGKLVLESELKRGGVSLDQYRGGRMSRILELIGVKSLNELLTDLGTGKKTGALVAERFFSGL")
"y"
>>> answer_label("HMTTKYVAVHESKDGYWTIASKPSSKEDAEAMLGGTPKNEVGKVVTLEEAKAHKKTLGEEYLYE")
"y"

* * *

Reported soluble fraction (log2) values for a set of sequences
test: soluble fraction after stress (log2 fold change); higher = more stays soluble; pooled small domains, quantitative proteomics; conditions: stress: pH 4
endpoint label: soluble fraction (log2)

>>> endpoint_value("HMDTIYPFNPNFIDDYKGYVLGLNTNEIDRLLKYRSKGNWINSAEDFKKVTGIDDALLNKLSKSFKFPDWL")
-0.991
>>> endpoint_value("HMRARTQYWPFVEEKAAELKLPLHLVNVEPLFGEQKVVVHYTANGRIDFRELVHLLARRFHARIEMR")
0.0493
>>> endpoint_value("HMRAVPSIAFVTQKLIEQGVTMEQLVRSLLLDHEEYENDDSLERTADELFGKARMIISNYTPE")
-1.04
>>> endpoint_value("HMEAGLRMPEQLTAFSALALLQKVRDSGPLTDAQKEQLDADVLRIEASHFGKADREALELEEILKQWLSRV")
-0.889
>>> endpoint_value("HMGTRYVEFVIPGTGNHEVRIVSSNGSRQNVEVAGTYPGGARLRTKVDNGVRRVSFYVDNRLVEEKQ")
-0.0183
>>> endpoint_value("HMAAINTYQVRKIYAIAGALGMKSRDGDDALHDLVFGMTGKQHISGLTSAEAYDVIAELEKKQ")
-0.223
>>> endpoint_value("HMVSRKIENPYWANKEKQHIIAEFFYPDTNKRVTASIMNDGSNRDYEEILRGYSIEQIDANTNRRLEER")
-0.811
>>> endpoint_value("HMNSLTVPDITNRTLAEASQVLLDMGLTPIPDAVAKDGVGDDVVYAQSPPPNVGAREGDVVTITYNPA")
0.093
>>> endpoint_value("HMAESTRSRILNAAIEMMETGGESSVRLSAIAEALGIKEPSIYHHFTNRTELVNAAYIEWYW")
-0.63
>>> endpoint_value("HMYLSNPTYRGDSLVDALTQIGVDASFASRRDLARKNGIENYTGSAKQNLELLQLLREGRLR")
-0.173
>>> endpoint_value("HMQELVPGKVFEGTVTEMKNGQVTLGLSDGKTISARMEQGVSLAKGQPMLFEVKSNTGEQIAIRPVVL")
0.105
>>> endpoint_value("HMKIRIIKTASNAKAVQIVSYKNNKRIVLQHIGSAHTDETLNDLKILAEEWIKDYNHQLSIF")
-0.671
>>> endpoint_value("HMSPREDQQSRKQHILEAAAVLFAERGYYKTTTADVARAVGVTQPYVFHFFKSKEELYLAVL")
0.219
>>> endpoint_value("HMDEVHYLADKERGTTWEEILIHADRDIKFLSLSATINNKNEFLEWLVSLRGTTSLIHSSTRPIPLEI")
-0.682
>>> endpoint_value("HMHLTNIPKGFTPSFDTKQWIVEEFGERYNYDNELKIFINHYRASGTTKSDWQYAFRSWLLRAKKFT")
-0.448
>>> endpoint_value("HMTLDSLEKLSVNDLEKMLVNMPVGYKTIFLLSVIDEYSHKEIGELLGITPETSRSQLFRAIKWIKTNIF")
-0.706
>>> endpoint_value("HMSNIVNYEVYVYQNDAWDLLARYPSEKRAEAIEYAKSTEFSLNRPTKVIRETYDLDTQKFQEALIYLSE")
-0.304

* * *

experiment: soluble fraction after stress (log2 fold change); higher = more stays soluble; pooled small domains, quantitative proteomics; conditions: stress: pH 4
Reported soluble fraction (log2) values for a set of sequences
endpoint label: soluble fraction (log2)

>>> endpoint_value("HMGVRLAPEVDRIPYGQMHPNLKKVKDLYEASYKAYVQALSSGNQALAKEKLEEFQSTKARYQRALSAYT")
0.195
>>> endpoint_value("HMGRFPSLTPVVIDALTAQYREHPGWTVQLHVDNLRVVLAANQTPLPSYPTIRRYLLAQGMRRQTRP")
-0.176
>>> endpoint_value("HMEEINTAPVFKNIIEIAEYAKTKFTTVEEIPKMIEFIETANSKLDNPHDEESVNELINALSTNIRKNV")
-0.554
>>> endpoint_value("HMGFVATRSRKFLPFSEARAITRGLGFSNQKDYKEWIKGNGNELLLPFNPWRTYGDSGWKGWKDFLGTDKA")
0.0101
>>> endpoint_value("HMDPTVTFIVQVNGRVRDKITLSSDISENEAKNVALESPKITPHISGKSLSRVIFVPGKLINLVV")
0.162
>>> endpoint_value("HMANILKHKNKDGVITSYTIRVYHGYDEAGKRLRPYTMNYKPAPNMTARQIEKELNRQAVQFEEQIKNGYA")
-0.182
>>> endpoint_value("HMRLIALPSVTDISIRQAEATLMSIGIKVSSIQYAPSEYKDLVLEVKYRGQSIIQGAKIPEGSSVVLVAGN")
-0.122
>>> endpoint_value("HMNHSITLTERKNLLITGVKKIENFDKEEFLIETTMGFLVVKGDGLELIKLDTISGNVSIKGIVNGFTYID")
0.0772
>>> endpoint_value("HMENLIEELTAKNKEYIHSVTKQLILVGKSDEEVKEILNDILPQIIEGQKSGIIARKLLGAPTEFVSQYQP")
-0.317
>>> endpoint_value("HMEDTVNVPIQINGKLRHVIQVQIGTSEEEIQKIALSEEQVKKFTDGHEILKVMVPKGKLVSIVI")
-0.126
>>> endpoint_value("HMGSRAEAKEFLQTMLADGRQLATDMEEARQAHDIADRTLRRARKELNVQVYRDGNAWYWELPTPIK")
-0.567
>>> endpoint_value("HMPRKYFPFYFTFRETAQTMPPRLRAVFYEAIIEYGTTGKEPTLPKSIAGYWPLVKPTLDSAKAHYDAG")
-0.0316
>>> endpoint_value("HMGVRVEVDAVTPPGAMASGSVVFSDGESKKWSVDQFGRLAMTGGAPDYKPSDQDVMEFQQQLEQSL")
-0.57
>>> endpoint_value("HMIRILIVDDSAFMRKLLSDVFEEDKNFVVVDTARNGQDAVEKVKRLKPDLVTMDVEMPVMDGLTAVEIIM")
-1.12
>>> endpoint_value("HMKRQATLQIGSKRFGMDDLYFKFTVPFEDSEKLGTATIEAYNLSPATRNSIKKGMPIILNAGYEGDI")
-0.103

* * *

assay: soluble fraction after stress (log2 fold change); higher = more stays soluble; pooled small domains, quantitative proteomics; conditions: stress: pH 4
Given measured soluble fraction (log2), output 1 (yes) if it is greater than or equal to -0.3 and 0 (no) if not.

>>> answer_label("HMTHPQVEAYLDDLARMLADIDPGERDDILASVREHLDAEIAAGHGSDAVVNATLLRLGPPEQVAAAARTN")
"0 (no)"
>>> answer_label("HMKTKTIMSTGAREDLVKMINEYYYSKNYIITEDNRIYNTKTEKFMDDLSVKFYRGRWKVIRN")
"1 (yes)"
>>> answer_label("HMTLGENLQNLRKEAGLSQEQVAQQLFVSRQTVSKWENNLAEPGVENLKALARLYGVTLDRLVGM")
"0 (no)"
>>> answer_label("HMKTLPADPTVKNFSYTVVDGEIYYRENSIMTQIELSDNAKGRVAGMVELRQIVNELIDQQLND")
"0 (no)"
>>> answer_label("HMSDGHLIKVLEVLDGGEAFLGRTANGGTARFSLGQLADIRRGSVVFVSEDRWEVVPDSAWPEI")
"0 (no)"
>>> answer_label("HMIGERIKRARAAAGLSMQALGKQVGISANMVKKYEHDQSMPSSGVLLKLATALSVRTEYFFRPA")
"1 (yes)"
>>> answer_label("HMIMTIYEYIARNNPTGAKRVIESFGYVVTQPKKMGDNLRMLVAQEGEPALKAVVDLHPDKDLILEV")
"0 (no)"
>>> answer_label("HMDIEHREMKLQKLVITADSPLVGKTLKESNVRQRYNFMVVGVEEGQKNLTMINPNRRFEVGDIVWVVGEE")
"1 (yes)"
>>> answer_label("HMELNDEELIKGIQELLTKIGYDPGEINGVLGIKTSSAISAFQQSRNKAITGEADLDLLVQLQIELRKITT")
"0 (no)"
>>> answer_label("HMRNSVQREWIYDYIQRQDAHLSADEIYEGLLKEGKNISLATVYRNLSILVDEYKIASVMTDSKKQVYDK")
"0 (no)"
>>> answer_label("HMDGTVRGKTTFQELLDWGVPQERIEAVLGGPIPAPGVVIKDYVTAQGKEFSAVRDALQAEVDAVLK")
"1 (yes)"
>>> answer_label("HMNLVELKHAEEFNTLIIQDIGGRMKPAHTLASELVRKVFHNDDFNGIDPRKVFLSIIENSKVWFNVPFI")
"0 (no)"
>>> answer_label("HMTDEEFSRIVKYTAVRYGINLYHKKVMVEGRLSNYLAANGFKSYTEYMDRVEADYTGQEAQNLINILTT")
"0 (no)"
>>> answer_label("HMPRVLSSYTLTLRHQPTAEAVALVRTLLSPAGSVEVKEDGRTLVVRDELAALSRIVGALRSFDH")
"1 (yes)"
>>> answer_label("HMEGVSSESVKEMLKSIIDGEDPHNPVSDQRITDILNSRGINISRRTVAKYRDELGIASSSRRKRY")
"1 (yes)"
>>> answer_label("HMSNIIGNTAYSAIPDKQYFRLKSETAEKVANYLTENNIPFSGRINGDKTTLTIGQKNVDDYKAAVATVTG")
"1 (yes)"
